Source of measurements: paper PMC7819943

assay-system: OsWOX13 (Oryza sativa, UniProt Q5QMM3 1-267)
Sequence: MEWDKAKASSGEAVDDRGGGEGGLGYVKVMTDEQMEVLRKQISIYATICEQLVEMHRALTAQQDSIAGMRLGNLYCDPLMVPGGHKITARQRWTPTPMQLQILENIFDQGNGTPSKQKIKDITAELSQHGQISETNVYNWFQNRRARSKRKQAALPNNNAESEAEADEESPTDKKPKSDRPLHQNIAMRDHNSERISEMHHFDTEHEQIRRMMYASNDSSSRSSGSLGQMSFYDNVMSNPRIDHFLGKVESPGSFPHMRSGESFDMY
measurement-protocol: protein-binding microarray (RPBM); PBS, 2% BSA, 51.3 ng/ul salmon testes DNA, 50 uM zinc acetate, 200 nM TF, 25 C, 1 h; high values mean tight binding
reported-conditions: protein: recombinant; tags: N-terminal polyhistidine and DsRed monomer fusion (pET32a); label: CyDye5-dUTP incorporated in the synthesized complementary strand; 3' TTTTT single-stranded linker to array surface; dsDNA, one strand shown
In all, about 35,000 sequences were measured (“fluorescence intensity (a.u.)”: median about 10,000, highest 2% from about 52,000 on). Only a selection was taken, and the highest values are over-represented in it overall.
Below is a list of entries, each paired with its recorded binding signal value.

Param item = "CTAATGAGCCTAATTAATCCATGATTAGCCTATGTGATGCCGGAGTCACCTAGTGCAG" ; retrieve measured binding signal.
43000 fluorescence intensity (a.u.)

Same question for "ATAACTAATATAATCGAACCTGCCTCACTTAATATGTGGCCGGAGTCACCTAGTGCAG" please.
4830 fluorescence intensity (a.u.)

Same question for "AAAATTAAATTGATGGTATTACTAGCATTAATTAGCCACTCGGAGTCACCTAGTGCAG" please.
62800 fluorescence intensity (a.u.)

Same question for "TGTGATTAATTGGTAATCTGCTTTTACAAGCTTCAATTGCCGGAGTCACCTAGTGCAG" please.
60400 fluorescence intensity (a.u.)

====

assay-system: OsWOX13 (Oryza sativa, UniProt Q5QMM3 1-267)
Sequence: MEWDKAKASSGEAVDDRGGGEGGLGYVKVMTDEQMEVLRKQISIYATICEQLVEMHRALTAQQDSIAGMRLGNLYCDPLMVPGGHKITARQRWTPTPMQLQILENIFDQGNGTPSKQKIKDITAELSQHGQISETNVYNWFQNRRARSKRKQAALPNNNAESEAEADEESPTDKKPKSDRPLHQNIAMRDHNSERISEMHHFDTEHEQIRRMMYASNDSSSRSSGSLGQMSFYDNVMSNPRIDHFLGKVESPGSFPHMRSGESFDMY
measurement-protocol: protein-binding microarray (RPBM); PBS, 2% BSA, 51.3 ng/ul salmon testes DNA, 50 uM zinc acetate, 200 nM TF, 25 C, 1 h; high values mean tight binding
reported-conditions: protein: recombinant; tags: N-terminal polyhistidine and DsRed monomer fusion (pET32a); label: CyDye5-dUTP incorporated in the synthesized complementary strand; 3' TTTTT single-stranded linker to array surface; dsDNA, one strand shown
Over roughly 35,000 sequences, “fluorescence intensity (a.u.)” has its median near 10,000; the highest 2% begin near 52,000. The list comes from a sample in which the highest values are over-represented; it also holds close analogues and randomly drawn sequences.
recorded-endpoint: binding signal

Solved entries:
[
  {
    "sequence-code": "GCAGATTAGTTGTGGCAAACATTCTCTTGTGTGCAGCACTCGGAGTCACCTAGTGCAG",
    "binding signal": "3650 fluorescence intensity (a.u.)"
  },
  {
    "sequence-code": "CAAATAATTATTATACTTTGTCATGTCATATAAACTATATCGGAGTCACCTAGTGCAG",
    "binding signal": "17900 fluorescence intensity (a.u.)"
  },
  {
    "sequence-code": "TTGCAAATAATTTGGAAAGGTAATATGAGCTACAGCTGTGCGGAGTCACCTAGTGCAG",
    "binding signal": "7080 fluorescence intensity (a.u.)"
  },
  {
    "sequence-code": "TAATTATTGACTAATATATTAATTAATATAATGTAATTTACGGAGTCACCTAGTGCAG",
    "binding signal": "22700 fluorescence intensity (a.u.)"
  },
  {
    "sequence-code": "CCCGATTGACAAGCTGACTCAGCATGGAGGGACCCACATGCGGAGTCACCTAGTGCAG",
    "binding signal": "37700 fluorescence intensity (a.u.)"
  },
  {
    "sequence-code": "CATAAACTGAAGCTCATAATTGTTTGTGAAATCGTTTATCCGGAGTCACCTAGTGCAG",
    "binding signal": "16900 fluorescence intensity (a.u.)"
  },
  {
    "sequence-code": "GATCAATCATTTGCTGAGCTCGTGAATTCTGTCTGGTTCACGGAGTCACCTAGTGCAG",
    "binding signal": "24300 fluorescence intensity (a.u.)"
  },
  {
    "sequence-code": "AGGCCCAATTACTGATCGAAATTTCGATGATTTCGATCGACGGAGTCACCTAGTGCAG",
    "binding signal": "18500 fluorescence intensity (a.u.)"
  }
]

Param item = "ACACAACTTGTTAATTTGACCTGTAGCCCCATCATGTACACGGAGTCACCTAGTGCAG" ; retrieve measured binding signal.
3150 fluorescence intensity (a.u.)
